Source of measurements: patent US20100040606A1

The reader will find reported kon values listed item by item below.
Target: T1, soluble recombinant G protein (amino acids 66-292 of the 18537 strain sequence) (RSV strain 18537 (subtype B), UniProt P20896 66-292)
T1 construct: also called G(B); recombinant protein G
T1 sequence: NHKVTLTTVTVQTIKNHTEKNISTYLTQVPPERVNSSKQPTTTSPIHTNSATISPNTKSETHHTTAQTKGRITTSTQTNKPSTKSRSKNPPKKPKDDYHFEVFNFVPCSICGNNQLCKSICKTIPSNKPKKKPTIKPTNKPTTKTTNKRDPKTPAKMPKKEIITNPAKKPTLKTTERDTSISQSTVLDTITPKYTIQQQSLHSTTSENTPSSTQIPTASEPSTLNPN
Assay: SPR (Biacore 3000), Fab over immobilised recombinant antigen;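 note: antigen immobilised on CM5 chip at very low density (about 50 RU), rate constants fitted globally with a 1:1 Langmuir model, Fabs obtained by enzymatic cleavage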
endpoint-name: kon

binder	data-value
Fab fragment of antibody from clone 859 (Fab, V domains shown, also called Fab clone 859; 859 (G)) VH: QVQLVESGGGVVQPGRSLRLSCAVSGSSFSKYGIHWVRQAPGKGLEWVAVISYDGSKKYFTDSVKGRFTIARDNSQNTVFLQMNSLRAEDTAVYYCATGGGVNVTSWSDVEHSSSLGYWGLGTLVTVSS VL: DIQMTQSPSSLSASVGDRVTITCRASQGIRNYLAWYQQKPGKVPKLLVFAASTLQSGVPSRFSGSGSGTDFTLTISSLQPEDVATYYCQRYNSAPLTFGGGTKVEIKR	380000 M⁻¹ s⁻¹
Fab fragment of antibody from clone 816 (Fab, V domains shown) VH: EVQLLESGGGLVQPGGSLRLSCVASGFTFSTYAMTWVRQAPGKGLEWVSVIRASGDSEIYADSVRGRFTISRDNSKNTVFLQMDSLRVEDTAVYFCANIGQRRYCSGDHCYGHFDYWGQGTLVTVSS VL: DIVMTQSPLSLPVTPGEPASISCRSSQSLLHSDGRYYVDWYLQKPGQSPHLLIYLASNRASGVPDRFTGSGSGTDFTLKISRVEAEDVGVYYCMQGLHTPWTFGQGTKVDIKR	2.02e+06 M⁻¹ s⁻¹
Fab fragment of antibody from clone 796 (Fab, V domains shown, also called Fab clone 796; 796 (G)) VH: QVQLVESGGGVVQPGRSLRLSCAASGFSFSHFGMHWVRQVPGKGLEWVAIISYDGNNVHYADSVKGRFTISRDNSKNTLFLQMNSLRDDDTGVYYCAKDDVATDLAAYYYFDVWGRGTLVTVSS VL: DIVMTQTPLSLSVTPGQPASISCRSSQSLLRSDGKTFLYWYLQKPGQSPQPLMYEVSSRFSGVPDRFSGSGSGADFTLNISRVETEDVGIYYCMQGLKIRRTFGPGTKVEIKR	833000 M⁻¹ s⁻¹
